// data source = paper PMC4033654

System: all human cancer cell lines successfully tested
procedureSummary: NCI60 anti-proliferative screen, all cell lines
Type: cell-based
propertyLabel: GI50 against various cell lines

Given COc1cc2c(=O)n(CCCN3CCOCC3)c3c(c2cc1OCCCN)C(=O)c1cc2c(cc1-3)OCO2.Cl [compound 17] , state its recorded GI50 against various cell lines. submicromolar

Given C=CCOc1cc2c3c(n(CCCN4CCOCC4)c(=O)c2cc1OC)-c1cc2c(cc1C3=O)OCO2 [compound 15] , state its recorded GI50 against various cell lines. submicromolar

Given COc1cc2c(=O)n(CCCN3CCOCC3)c3c(c2cc1OCCCN1CCCCC1)C(=O)c1cc2c(cc1-3)OCO2 [compound 22] , state its recorded GI50 against various cell lines. low micromolar

Given COc1cc2c(=O)n(CCCN3CCOCC3)c3c(c2cc1OCCCN1CCOCC1)C(=O)c1cc2c(cc1-3)OCO2 [compound 20] , state its recorded GI50 against various cell lines. submicromolar

---
Given COC(=O)COc1cc2c3c(n(CCCN4CCOCC4)c(=O)c2cc1OC)-c1cc2c(cc1C3=O)OCO2 [compound 24] , state its recorded GI50 against various cell lines. low micromolar
